Data origin, for the record: PubChem BioAssay AID2060898

Test system: 616215-338-R-J1-PDC complex spheroid viability;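 also: spheroids exposed to agents for seven days before viability readout; 100% = DMSO vehicle control viability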
ASSAY_PROTOCOL: Anticancer human tumor 616215-338-R-J1-PDC patient-derived colon adenocarcinoma cell line growth inhibition [RAS]
CONDITION_CONTEXT: second compound 0.03 µM; first compound 0.0316 µM; active compounds read low
From the text: RAS pathway inhibitors in Combinations in Complex Spheroids A high-throughput screen of multi-cell type tumor spheroids was designed to identify active combinations of RAS pathway inhibitors and targeted small molecules. Complex spheroids include a stromal component modeled by human endothelial cells (HUVEC) and fibroblasts modeled by human mesenchymal stem cells (MSCs). […] Compounds. […] If the clinical Cmax for an agent had not been determined, the highest concentration tested was 10 microM. […]
METRIC: viability, T/C (%)

{"columns": ["COMPOUND", "DATA_VALUE"],
 "data": [
  ["C=CC(=O)N1CCN(c2nc(OCC3CCCN3C)nc3c(F)c(-c4nc(N)cc(C)c4C(F)(F)F)c(Cl)cc23)C(C)C1 (centres undefined) + CCn1c(-c2cccnc2C(C)OC)c2c3cc(ccc31)N1CCOC(CC(NC(=O)C(C(C)C)N(C)C(=O)C3(F)CCN(C(=O)C#CC(C)(C)N(C)C)CC3)C(=O)N3CCCC(N3)C(=O)OCC(C)(C)C2)C1", 105],
  ["C[C@@H](NC(=O)c1ncnc(N)c1Cl)c1ncc(C(=O)Nc2cc(C(F)(F)F)c(Cl)cn2)s1 + CCn1c(-c2cc(N3CCN(C)CC3)cnc2C(C)OC)c2c3cc(ccc31)-c1csc(n1)CC(NC(=O)C1CC1C)C(=O)N1CCCC(N1)C(=O)OCC(C)(C)C2", 58.9],
  ["CC(=O)OC12COC1CC(O)C1(C)C(=O)C(O)C3=C(C)C(OC(=O)C(O)C(NC(=O)OC(C)(C)C)c4ccccc4)CC(O)(C(OC(=O)c4ccccc4)C21)C3(C)C (centres undefined) + CCn1c(-c2cccnc2C(C)OC)c2c3cc(ccc31)N1CCOC(CC(NC(=O)C(C(C)C)N(C)C(=O)C3(F)CCN(C(=O)C#CC(C)(C)N(C)C)CC3)C(=O)N3CCCC(N3)C(=O)OCC(C)(C)C2)C1", 25.9],
  ["CC(Nc1ccc2c(c1)OCCn1cc(N3C(=O)OCC3C(F)F)nc1-2)C(N)=O (centres undefined) + CCn1c(-c2cc(N3CCN(C)CC3)cnc2C(C)OC)c2c3cc(ccc31)-c1csc(n1)CC(NC(=O)C1CC1C)C(=O)N1CCCC(N1)C(=O)OCC(C)(C)C2", 37.4]
]}
